Exercise: state measured pKd for each of the binders provided.
tested.on: T1, RatNectin4-His (rat, UniProt D3ZET1 31-348)
T1 construct: Immobilized on the SPR chip; not shown: His tag
T1 sequence: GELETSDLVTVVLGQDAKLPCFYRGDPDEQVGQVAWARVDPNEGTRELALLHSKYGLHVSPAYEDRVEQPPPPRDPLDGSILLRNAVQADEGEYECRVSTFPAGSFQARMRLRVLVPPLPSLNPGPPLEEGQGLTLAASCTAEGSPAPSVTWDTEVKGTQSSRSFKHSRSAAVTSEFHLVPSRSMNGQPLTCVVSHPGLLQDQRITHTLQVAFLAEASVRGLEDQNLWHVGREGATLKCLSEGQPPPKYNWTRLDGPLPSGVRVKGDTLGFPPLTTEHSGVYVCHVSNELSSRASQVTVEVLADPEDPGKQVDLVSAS
assay.comment: SPR, RatNectin4-His immobilized, pH 6.0
# pKd = -log10(concentration in molar units)

Short answer for BAP-143-07-03-12 (antibody, V domains shown, Used as a conjugate with a linker payload (CAB ADC)) VH: EVQLVESGGGLVQPGGSLRLSCAASGFTFSSYNMNWVRQAPGKGLEWVSYISSSSSTIYYADSVKGRFTISRDNAKNSLSLQMNSLRDEDTAVYYCARAYYYGMDKWGQGTTVTVSS VL: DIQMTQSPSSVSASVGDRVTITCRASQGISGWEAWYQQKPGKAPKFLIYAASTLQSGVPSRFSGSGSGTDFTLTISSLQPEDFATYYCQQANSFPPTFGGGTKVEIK : pKd was 9.13

Short answer for BAP-143-wildtype (antibody, V domains shown, 150 kDa used in SPR; also called BAP143-00-00; benchmark (BM)) VH: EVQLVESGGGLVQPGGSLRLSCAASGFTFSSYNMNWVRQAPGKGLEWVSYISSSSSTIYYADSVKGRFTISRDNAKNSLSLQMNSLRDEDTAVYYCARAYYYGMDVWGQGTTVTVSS VL: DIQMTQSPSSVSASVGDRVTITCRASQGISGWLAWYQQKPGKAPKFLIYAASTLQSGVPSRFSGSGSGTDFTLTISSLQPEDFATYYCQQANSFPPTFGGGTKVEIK : pKd was 9.76

Short answer for BAP-143-06-24-16 (antibody, V domains shown, Used as a conjugate with a linker payload (CAB ADC)) VH: EVQLVQSGAEVKKPGATVKISCKVSGFTFSSYNMNWIRQSPSRGLEWLGYISSSSSTIYYADSVKGRFTISRDNSKNTLYLQMNSLRAEDTAVYYCARAYYYGDDVWGQGTLVTVSS VL: DIQMTQSPSSVSASVGDRVTITCHASQGISGWLAWYQQKPGKAPKFLIYAASTLQSGVPSRFSGSGSGTDFTLTISSLQPEDFATYYCQQANSFPPTFGGGTKVEIK : pKd was 9.98

Short answer for BAP-143-06-33-16 (antibody, V domains shown, Used as a conjugate with a linker payload (CAB ADC)) VH: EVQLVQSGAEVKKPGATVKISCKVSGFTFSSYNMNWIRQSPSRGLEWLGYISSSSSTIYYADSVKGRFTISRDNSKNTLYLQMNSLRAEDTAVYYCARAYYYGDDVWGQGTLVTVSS VL: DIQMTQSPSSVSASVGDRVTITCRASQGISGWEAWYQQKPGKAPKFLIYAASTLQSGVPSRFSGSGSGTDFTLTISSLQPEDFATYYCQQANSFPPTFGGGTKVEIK : pKd was 9.81
